system: EC-1, mouse virulent strain of Escherichia coli; format: cell-based; conditions: E. coli EC-1; overnight incubation, lower of duplicate values; trifluoroacetate salt (Example 1 and PMB sulfate)
Bridge positions count the residues as written; N and C are the ends. Square brackets hold non-standard residues; d marks the D form. Peptide text beside a SMILES is read from it. * marks the point of attachment. Isonicotinoyl(2-Ph) = O=C(c1ccnc(-c2ccccc2)c1)*; X17 = N#Cc1ccc(-c2cccc(C(=O)*)c2)cc1; X37 = COc1cc(C(=O)*)cc(-c2ccccc2)n1; X6 = O=C(c1cccc(-c2ccc(F)cc2)c1)*; X8 = O=C(c1cc(-c2ccccc2)ccc1F)*; Dab = NCC[C@H](N)C(=O)O; Dap = NC[C@H](N)C(=O)O
Observed property: EC-1 MIC (µg/mL)
Express your answer in µg/mL, writing the number without its unit.

- CC(C)C[C@@H]1NC(=O)[C@@H](Cc2ccccc2)NC(=O)[C@H](CCN)NC(=O)[C@@H](NC(=O)[C@H](CN)NC(=O)[C@@H](NC(=O)[C@H](CCN)NC(=O)c2cc(-c3ccccc3)ccc2F)[C@@H](C)O)CCNC(=O)[C@H]([C@@H](C)O)NC(=O)[C@H](CCN)NC(=O)[C@H](CCN)NC1=O [Example 34] (X8-[Dab]T[Dap][Dab][Dab][dF]L[Dab][Dab]T; lactam 4-C): 0.125
- COc1cc(C(=O)N[C@@H](CCN)C(=O)N[C@H](C(=O)N[C@@H](CN)C(=O)N[C@H]2CCNC(=O)[C@H]([C@@H](C)O)NC(=O)[C@H](CCN)NC(=O)[C@H](CCN)NC(=O)[C@H](CC(C)C)NC(=O)[C@@H](Cc3ccccc3)NC(=O)[C@H](CCN)NC2=O)[C@@H](C)O)cc(-c2ccccc2)n1 [Example 35] (X37-[Dab]T[Dap][Dab][Dab][dF]L[Dab][Dab]T; lactam 4-C): 0.25
- CC(C)C[C@@H]1NC(=O)[C@@H](Cc2ccccc2)NC(=O)[C@H](CCN)NC(=O)[C@@H](NC(=O)[C@H](CN)NC(=O)[C@@H](NC(=O)[C@H](CCN)NC(=O)c2ccnc(-c3ccccc3)c2)[C@@H](C)O)CCNC(=O)[C@H]([C@@H](C)O)NC(=O)[C@H](CCN)NC(=O)[C@H](CCN)NC1=O [Example 1] ({Isonicotinoyl(2-Ph)}-[Dab]T[Dap][Dab][Dab][dF]L[Dab][Dab]T; lactam 4-C): 0.125

// sample CC(C)C[C@@H]1NC(=O)[C@@H](Cc2ccccc2)NC(=O)[C@H](CCN)NC(=O)[C@@H](NC(=O)[C@H](CN)NC(=O)[C@@H](NC(=O)[C@H](CCN)NC(=O)c2cccc(-c3ccc(C#N)cc3)c2)[C@@H](C)O)CCNC(=O)[C@H]([C@@H](C)O)NC(=O)[C@H](CCN)NC(=O)[C@H](CCN)NC1=O [Example 32] (X17-[Dab]T[Dap][Dab][Dab][dF]L[Dab][Dab]T; lactam 4-C) , its EC-1 MIC was 0.25

Summary for this molecule, CC(C)C[C@@H]1NC(=O)[C@@H](Cc2ccccc2)NC(=O)[C@H](CCN)NC(=O)[C@@H](NC(=O)[C@H](CN)NC(=O)[C@@H](NC(=O)[C@H](CCN)NC(=O)c2cccc(-c3ccc(F)cc3)c2)[C@@H](C)O)CCNC(=O)[C@H]([C@@H](C)O)NC(=O)[C@H](CCN)NC(=O)[C@H](CCN)NC1=O [Example 20] (X6-[Dab]T[Dap][Dab][Dab][dF]L[Dab][Dab]T; lactam 4-C) : EC-1 MIC is 0.25
